- system_name: T1, EsCas13d, nuclease-dead (Eubacterium siraeum, UniProt B0MS50, R295A;H300A;R849A;H854A)
- T1 sequence: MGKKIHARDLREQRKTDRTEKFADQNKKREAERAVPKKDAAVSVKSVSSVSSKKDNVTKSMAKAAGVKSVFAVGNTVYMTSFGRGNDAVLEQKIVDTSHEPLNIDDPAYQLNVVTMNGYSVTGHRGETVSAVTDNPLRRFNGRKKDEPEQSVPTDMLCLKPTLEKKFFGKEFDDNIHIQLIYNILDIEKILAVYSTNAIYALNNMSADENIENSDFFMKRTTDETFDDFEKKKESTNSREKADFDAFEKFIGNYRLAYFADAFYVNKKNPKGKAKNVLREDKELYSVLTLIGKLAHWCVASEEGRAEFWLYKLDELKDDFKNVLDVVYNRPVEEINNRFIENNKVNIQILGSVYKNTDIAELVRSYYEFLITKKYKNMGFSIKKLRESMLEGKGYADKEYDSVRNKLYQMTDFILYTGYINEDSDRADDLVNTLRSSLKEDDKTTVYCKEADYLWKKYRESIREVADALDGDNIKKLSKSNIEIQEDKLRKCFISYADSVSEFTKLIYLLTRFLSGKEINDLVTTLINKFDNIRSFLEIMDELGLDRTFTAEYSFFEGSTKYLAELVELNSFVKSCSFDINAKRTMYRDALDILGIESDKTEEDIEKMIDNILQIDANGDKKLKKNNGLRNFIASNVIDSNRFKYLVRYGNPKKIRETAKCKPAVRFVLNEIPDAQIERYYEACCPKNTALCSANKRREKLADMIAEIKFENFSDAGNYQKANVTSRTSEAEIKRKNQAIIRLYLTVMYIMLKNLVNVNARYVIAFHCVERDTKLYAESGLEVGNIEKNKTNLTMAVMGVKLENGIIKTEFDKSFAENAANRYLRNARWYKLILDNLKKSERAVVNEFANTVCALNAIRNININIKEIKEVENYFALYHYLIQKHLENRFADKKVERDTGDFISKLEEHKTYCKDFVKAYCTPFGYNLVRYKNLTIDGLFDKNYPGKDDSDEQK
- experimental_protocol: crRNA (strand 1, pre-loaded); Mg2+; 40 mM Tris-HCl pH 7.5, 150 mM NaCl, 6 mM MgCl2, 1 mM DTT, 0.1% Tween-20, 0.2 mg/ml BSA; 25 C; 10 min per concentration, then washed
- measurement_conditions: tags: His6-TwinStrep-SUMO cleaved; N-terminal SNAP kept (SNAP-Surface 488); label: 3' end held by stalled T7 RNA polymerase
For each record, write down the corresponding Kd.
Please reply with the bare figure in nM and do not write the unit itself.

// field: Kd; key: target 1 C6U,G12U (mixed) RNA 1: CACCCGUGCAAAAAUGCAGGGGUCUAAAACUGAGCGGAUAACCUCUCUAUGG RNA 2: GGGAAUGGAUCCACAUCUACGAAUUCGUACCAUAGAGAGUUUAUCUGCUCACCGAGAUCGGAAGAGCACACGU ; value = 11.3

// field: Kd; key: target 1 MT 5'PFS UAG 3'PFS AUU (mixed) RNA 1: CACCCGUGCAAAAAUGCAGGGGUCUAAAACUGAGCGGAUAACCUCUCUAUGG RNA 2: GGGAAUGGAUCCACAUCUACGAAUUCUAGCCAUAGAGAGGUUAUCCGCUCAAUUAGAUCGGAAGAGCACACGU ; value = 31.6

// field: Kd; key: target 1 C4U,C6G (mixed) RNA 1: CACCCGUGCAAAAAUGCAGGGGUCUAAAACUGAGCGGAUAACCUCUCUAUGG RNA 2: GGGAAUGGAUCCACAUCUACGAAUUCGUACCAUAGAGAGGUUAUCGGUUCACCGAGAUCGGAAGAGCACACGU ; value = 5.28

// field: Kd; key: target 1 insU 3' of 21,insA 3' of 11 (mixed) RNA 1: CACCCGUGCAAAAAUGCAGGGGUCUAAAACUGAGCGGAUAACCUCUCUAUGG RNA 2: GGGAAUGGAUCCACAUCUACGAAUUCGUACCUAUAGAGAGGUAUAUCCGCUCACCGAGAUCGGAAGAGCACACGU ; value = 49

Numbers sourced from paper PMC10786891.
